Recorded values, source paper PMC7556464.

Molecular target: T1, factor H binding protein (fHbp) variant 3.28 (Neisseria meningitidis M1239, fHbp v3.28, UniProt Q19KF7, strain)
T1 construct: also called fHbp v3.28; fHbp v3; source: E. coli BL21(DE3), purified (Ni-NTA; SEC when necessary)
Assay: SPR
Conditions: both partners purified
I'd appreciate it if you could supply log10 of koff values for the items below.
Note the log scale: values are log10 of koff expressed in s⁻¹.

Worked cases, answers included:
{"columns": ["BINDER", "log10 of koff"],
 "data": [
  ["human anti-fHbp mAb 4B10 (antibody, V domains shown, source: Expi293, transient transfection, purified (protein G Sepharose)) VH: EVQLVESGGGLVKPGGSLRLSCAASGFAFSTYSLHWVRQAPGKGLEWVSAITSSGSFLYYADSLKGRFTVSRDNAKNSLFLQMNSLRAGDTAVYYCARALQVEDGFPMFSGLDVWGQGTTVTVSS VL: QTVVTQPPSVSEAPRQRVAISCSGSSSNIGDNSVSWYQQLPGKAPKLLIYDDDLLPSGVSDRFSASKSGTSASLAISGLQSEDEAEYYCAAWDDSLKGVVFGGGTKLTVL", -3.33],
  ["human anti-fHbp mAb 1E10 (antibody, V domains shown, source: Expi293, transient transfection, purified (protein G Sepharose)) VH: QVQLVESGGDLVKPGGSLRLSCVASGFTFSSYTMNWVRQAPGKGLEWVSSITSSSSFTYYADSVKGRFIISRDNAKNSLSLQMNNLRVEDTATYYCARRKDSSDYDWYYYYGMDVWGLGTTVTVSS VL: QSVVTQPPSVSAAPGQKVTISCSGSSSNIGDNYMSWYQQIPGTAPKLLIFDNDQRPSGIPDRFSASKSGTSATLDITGFQTGDEADYYCGTWDSGLSAPVFGGGTKLTVL", -3.31],
  ["human anti-fHbp mAb 2C8 (antibody, V domains shown, source: Expi293, transient transfection, purified (protein G Sepharose)) VH: QVQLVQSGAEVKKPGSSVKVSCKASGGTVINYPISWVRQVPGQGLEWMGRLVPLFGTPNYGQKFQGRITITADKSTSAAYMELIGLKSEDTAVYYCARGDTAMAPFDYWGHGTLVTVSS VL: QLVLTQPPSVSVAPGKTATITCGGNNVGGKTVHWYQQKPGQAPVLVMSYDSDRPSGIPERFSGSNSGNTATLTISRVEAEDEADYYCQVWHGNDDHWVFGGGTKLTVL", -3.70],
  ["human anti-fHbp mAb 1D1 (antibody, V domains shown, source: Expi293, transient transfection, purified (protein G Sepharose)) VH: QVQLVGSGGGLVKPGGSLRLSCAASGFTFSSYTMNWVRQAPGKGLEWVSSISSSSGYIYYADSLKGRFTISRDDAKNSLFLQMNSLRAEDTAVYFCARDKVLPAPPGFYGLDVWGPGTTVTVSS VL: QSVVTQPPSVSAAPGQKVTISCSGSSSNIEDNFVSWYQQLPGTAPKLLIYDNNQRPSGIPDRFSGSKSGTSATLGITGLQTGDEADYYCATWDNSLSARVFGGGTKLTVL", -3.19]
]}

Would you be so kind as to report log10 of koff for each listed record?
1. human anti-fHbp mAb 3F1 (antibody, V domains shown, source: Expi293, transient transfection, purified (protein G Sepharose)) VH: EVHLVESGGGLVKPGGSLRLSCAASGFTFSSYTMNWVRQAPGKGLEWVSSISSSSGYIYYADSLKGRFTISRDNAKNSLFLQMNSLRAEDTAVYFCARDKVLPAPPGFYGLDVWGPGTTVTVSS VL: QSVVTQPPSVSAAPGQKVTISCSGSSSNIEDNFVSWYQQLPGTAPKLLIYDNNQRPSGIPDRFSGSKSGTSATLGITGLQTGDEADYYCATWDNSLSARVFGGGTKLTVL
2. human anti-fHbp mAb 5F12 (antibody, V domains shown, source: Expi293, transient transfection, purified (protein G Sepharose)) VH: EVQLVESGGDLVKPGGSLRLSCAASGFTFSNYTMNWVRQAPGKGLEWVSSITSSSSFKYYADSVKGRFTISRDNAKNSVFLQMNSLRAEDTAIYYCARRIDSSDQDWFYYYGMDVWGLGTTVTVSS VL: QSVLTQPPSVSAAPGQRVTISCSGSSSNIGDNYISWYQQLPGTAPKLLIYDNDQRPSGTPDRFSASKSGTSATLGVTGLQTGDEADYYCGTWDSSLNAPVFGSGTKVTVL
3. human anti-fHbp mAb 3G7 (antibody, V domains shown, source: Expi293, transient transfection, purified (protein G Sepharose)) VH: EVQLLQSGGGLVKPGGSLRLSCAASGFPFSSYYMSWIRQAPGKGLEWVSDINNSGNVKEYADFVKGRLTISRDNVKNSMYLHMNSLRVEDTAVYYCARNRGRFDVWGQGTLVTVSA VL: EIVLTQSPGTLSLSPGETATLSCRASQMISSPFLAWYQQRRGQAPRLLIYGASTRATDTPDRFRGSGSGTDFILTISRLEPEDFAVYYCQYYDDSPFTFGQGTKLEIK
4. human anti-fHbp mAb 2G1 (antibody, V domains shown, source: Expi293, transient transfection, purified (protein G Sepharose)) VH: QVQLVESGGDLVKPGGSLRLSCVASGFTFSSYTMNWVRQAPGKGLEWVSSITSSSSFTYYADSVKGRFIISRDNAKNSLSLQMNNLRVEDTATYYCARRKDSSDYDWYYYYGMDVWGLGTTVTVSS VL: QSVLTQPPSVSAAPGQKVTISCSGSSSNIGDNYMSWYQQIPGTAPKLLIFDNDQRPSGIPDRFSASKSGTSATLDITGFQTGDEADYYCGTWDSGLSAPVFGGGTKLTVL
5. human anti-fHbp mAb 4F9 (antibody, V domains shown, source: Expi293, transient transfection, purified (protein G Sepharose)) VH: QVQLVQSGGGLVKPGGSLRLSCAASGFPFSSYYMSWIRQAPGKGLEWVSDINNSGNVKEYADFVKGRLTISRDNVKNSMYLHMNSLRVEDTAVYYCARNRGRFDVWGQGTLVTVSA VL: EIVMTQSPGTLSLSPGETATLSCRASQMISSPFLAWYQQRRGQAPRLLIYGASTRATDTPDRFRGSGSGTDFILTISRLEPEDFAVYYCQHYDDSPFTFGQGTKLEIK
6. human anti-fHbp mAb 3B7 (antibody, V domains shown, source: Expi293, transient transfection, purified (protein G Sepharose)) VH: EVQLVQSGAEVKKPGSSVKVSCKASGDTFSNYPISWVRQAPGQGLEWMGGIIPIFGTANYAQKFQGRVTITADESTSTPYMELSSLRSEDTAVYYCARGDTAMAPFDYWGQGTLVTVSS VL: SYVLTQPPSVSVAPGKTARITCGGNSIGSKSVHWYQQKPGQAPVLVIYYDSDRPSGVPERISGSNSGNTATLTISRVEAGDEADYYCQVWDSSSDSWVFGGGTKLTVL

[-3.20, -2.21, -3.75, -3.23, -3.02, -3.08]

Return log10 of koff for the following binder: human anti-fHbp mAb 4B3 (antibody, V domains shown, source: Expi293, transient transfection, purified (protein G Sepharose)) VH: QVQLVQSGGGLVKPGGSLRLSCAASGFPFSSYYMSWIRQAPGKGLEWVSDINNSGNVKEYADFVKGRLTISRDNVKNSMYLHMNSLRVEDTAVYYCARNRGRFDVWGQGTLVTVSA VL: EIVMTQSPGTLSLSPGETATLSCRASQMISSPFLAWYQQRRGQAPRLLIYGASTRATDTPDRFRGSGSGTDFILTISRLEPEDFAVYYCQYYDDSPFTFGQGTKLEIK
-3.70
